Values compiled from paper doi:10.1101/2022.10.12.511839.

target: human Scribble PDZ1 domain (728-815) (human, UniProt Q14160 728-815); experiment: ITC
Sequence (Q14160 728-815): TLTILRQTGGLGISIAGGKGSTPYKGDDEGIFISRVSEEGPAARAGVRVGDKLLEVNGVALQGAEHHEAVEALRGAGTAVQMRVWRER
ENDPOINT: pKd
In textbook form, pKd equals minus log to base ten of the concentration in mol/L.

Indicate its recorded pKd; the binder in question is SSRTRRETQL [HPV16 E6 C-terminal PBM 10-mer peptide (SSRTRRETQL)]
5.03
